Listed here are compounds together with their documented Defecation time.
- Test system: ICR mice
- experiment description: Evaluation of side effects of constipation (defecation time, number, weight)
- Format: in vivo
- setup conditions: 5 mg/kg; first black stool; x ± SE; only animals that defecate within 5 hours
- Procedure: Constipation side effect is a common side effect of opioid drugs. This patent evaluates the possibility of constipation side effect by the influence of the compound on defecation time, defecation quantity and defecation weight of experimental animals. […] After administration for 30 minutes, the mice in each group are given Chinese ink by gavage. After administration, the mice are kept in a single cage, and the excretion time of the first black stool is recorded. […]
Counter-ions that a name gives are not always drawn.
A number alone suffices; assume min.

compound	Defecation time, min
[2H]C([2H])([2H])N(C[C@@H]1CN(C(=O)Cc2cc(F)c(F)cc2F)CC[C@@]1(O)c1cccc(OC)c1)C([2H])([2H])[2H] [II-9hydrochloride]	242.9
[2H]C([2H])([2H])N(C[C@@H]1CN(S(=O)(=O)Cc2ccccc2)CC[C@@]1(O)c1cccc(OC)c1)C([2H])([2H])[2H] [II-3hydrochloride]	243.6

Now let's try a different one.
Kindly note the recorded Defecation time for [2H]C([2H])([2H])Oc1cccc([C@]2(O)CCN(C(=O)Cc3cc(F)c(F)cc3F)C[C@H]2CN(C([2H])([2H])[2H])C([2H])([2H])[2H])c1 [II-11hydrochloride] , which is 265.9
